Molecular target: α9α10 nAChR (Homo sapiens, UniProt Q9GZZ6+Q9UGM1)
Sequence (Q9UGM1 26-479 limits assumed): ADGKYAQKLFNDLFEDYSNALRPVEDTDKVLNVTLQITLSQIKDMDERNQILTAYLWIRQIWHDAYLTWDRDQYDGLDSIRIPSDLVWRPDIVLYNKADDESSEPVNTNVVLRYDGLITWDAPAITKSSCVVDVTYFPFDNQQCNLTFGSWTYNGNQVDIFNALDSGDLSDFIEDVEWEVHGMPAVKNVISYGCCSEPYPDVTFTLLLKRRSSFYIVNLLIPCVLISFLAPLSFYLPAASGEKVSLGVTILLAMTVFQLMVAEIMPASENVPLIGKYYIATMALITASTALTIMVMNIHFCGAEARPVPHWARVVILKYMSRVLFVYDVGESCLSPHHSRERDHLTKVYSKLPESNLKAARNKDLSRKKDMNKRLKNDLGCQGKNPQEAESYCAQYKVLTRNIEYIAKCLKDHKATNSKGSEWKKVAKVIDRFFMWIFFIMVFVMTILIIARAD
Sequence (Q9GZZ6 25-450): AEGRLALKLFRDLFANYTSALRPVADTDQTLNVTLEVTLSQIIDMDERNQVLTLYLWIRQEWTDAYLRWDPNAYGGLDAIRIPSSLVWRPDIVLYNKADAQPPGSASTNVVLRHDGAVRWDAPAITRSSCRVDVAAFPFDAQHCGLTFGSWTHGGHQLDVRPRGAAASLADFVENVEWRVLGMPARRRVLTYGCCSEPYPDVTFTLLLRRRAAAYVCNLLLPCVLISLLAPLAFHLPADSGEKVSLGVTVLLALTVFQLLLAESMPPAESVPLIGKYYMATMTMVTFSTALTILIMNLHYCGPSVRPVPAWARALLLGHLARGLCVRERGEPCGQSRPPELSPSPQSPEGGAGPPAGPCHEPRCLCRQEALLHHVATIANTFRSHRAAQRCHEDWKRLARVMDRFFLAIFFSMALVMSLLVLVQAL
Test: Two-electrode voltage-clamp, agonist concentration-response, α9α10 nAChR in Xenopus oocytes
Details: peak currents; ± standard error of fit
pEC50: −log10 of the molar value.

COMPOUND: CC[N+]1(CC)CCN(c2ccc(-n3cccn3)cc2)CC1.[I-]
ASSAYED TARGET: α9α10 nAChR (Homo sapiens, UniProt Q9GZZ6+Q9UGM1)
pEC50: 5.70
--
COMPOUND: CC[N+]1(CC)CCN(c2ccc(-c3ncco3)cc2)CC1.[I-]
ASSAYED TARGET: α9α10 nAChR (Homo sapiens, UniProt Q9GZZ6+Q9UGM1)
pEC50: 6.15
--
COMPOUND: CCCNC(=O)c1ccc(N2CC[N+](CC)(CC)CC2)cc1.[I-]
ASSAYED TARGET: α9α10 nAChR (Homo sapiens, UniProt Q9GZZ6+Q9UGM1)
pEC50: 4.96
--
COMPOUND: CC[N+]1(CC)CCN(c2ccc(C(=O)N3CCCC3)cc2)CC1.[I-]
ASSAYED TARGET: α9α10 nAChR (Homo sapiens, UniProt Q9GZZ6+Q9UGM1)
pEC50: 4.82
--
COMPOUND: CC[N+]1(CC)CCN(c2ccc(C(N)=O)cc2)CC1 [Compound 1, reference compound]
ASSAYED TARGET: α9α10 nAChR (Homo sapiens, UniProt Q9GZZ6+Q9UGM1)
pEC50: 4.89
--
COMPOUND: CC[N+]1(CC)CCN(c2ccc(-n3cccc3)cc2)CC1.[I-]
ASSAYED TARGET: α9α10 nAChR (Homo sapiens, UniProt Q9GZZ6+Q9UGM1)
pEC50: 5.82
--
COMPOUND: CC[N+]1(CC)CCN(c2ccc(C(=O)Nc3cccc(C)c3)cc2)CC1.[I-]
ASSAYED TARGET: α9α10 nAChR (Homo sapiens, UniProt Q9GZZ6+Q9UGM1)
pEC50: 6.21
--
COMPOUND: Cc1cccc(NC(=O)c2ccc(N3CC[N+](C)(C)CC3)cc2)n1.[I-]
ASSAYED TARGET: α9α10 nAChR (Homo sapiens, UniProt Q9GZZ6+Q9UGM1)
pEC50: 5.38
--
COMPOUND: CC[N+]1(CC)CCN(c2ccc(C(=O)Nc3ccccn3)cc2)CC1.[I-]
ASSAYED TARGET: α9α10 nAChR (Homo sapiens, UniProt Q9GZZ6+Q9UGM1)
pEC50: 5.93

----------
Biological target: α9 nAChR (Homo sapiens)
Construct: expressed in transfected cells; host or cells: Xenopus laevis oocytes, injected with in vitro transcribed RNA
Test: Two-electrode voltage-clamp, agonist concentration-response, α9 nAChR in Xenopus oocytes
Assay type: cell-based

COMPOUND: CC[N+]1(C)CCN(c2ccc(C(=O)Nc3cccc(C)n3)cc2)CC1.[I-] [Compound 3f]
Agonist character / efficacy at α9: full agonist
//
COMPOUND: CC[N+]1(CC)CCN(c2ccc(C(=O)Nc3cccc(C)n3)cc2)CC1.[I-] [Compound 2]
Agonist character / efficacy at α9: full agonist
//
COMPOUND: CC[N+]1(CC)CCN(c2ccc(-n3cccn3)cc2)CC1.[I-] [Compound 3h]
Agonist character / efficacy at α9: full agonist

----------
Biological target: α7 nAChR (Homo sapiens, UniProt P36544)
Construct: expressed in transfected cells; host or cells: Xenopus laevis oocytes, injected with in vitro transcribed RNA
Sequence (P36544 23-502): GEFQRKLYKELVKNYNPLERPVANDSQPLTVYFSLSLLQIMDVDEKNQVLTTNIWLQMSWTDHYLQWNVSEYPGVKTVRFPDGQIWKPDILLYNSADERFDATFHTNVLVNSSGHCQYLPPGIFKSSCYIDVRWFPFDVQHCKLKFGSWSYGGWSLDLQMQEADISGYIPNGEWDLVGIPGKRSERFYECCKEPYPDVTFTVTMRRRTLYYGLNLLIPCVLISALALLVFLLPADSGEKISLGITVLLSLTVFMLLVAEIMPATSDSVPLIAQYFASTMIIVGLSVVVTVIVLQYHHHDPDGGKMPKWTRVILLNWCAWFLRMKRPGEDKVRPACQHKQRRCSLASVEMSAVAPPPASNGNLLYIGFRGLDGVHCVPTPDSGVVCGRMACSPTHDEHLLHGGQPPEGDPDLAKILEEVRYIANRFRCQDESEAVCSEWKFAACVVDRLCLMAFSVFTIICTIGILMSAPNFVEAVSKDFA
Assay: Two-electrode voltage-clamp, agonist concentration-response, α7 nAChR in Xenopus oocytes
Assay type: cell-based
READOUT TYPE: Agonist character / efficacy at α7

ENTRY SMILES: CC[N+]1(CC)CCN(c2ccc(C(=O)Nc3ccccn3)cc2)CC1.[I-]
REPORTED RESULT: partial agonists

ENTRY SMILES: CC[N+]1(CC)CCN(c2ccc(C(=O)Nc3cccc(C)c3)cc2)CC1.[I-]
REPORTED RESULT: partial agonists

----------
Biological target: α9 nAChR (Homo sapiens, UniProt Q9UGM1)
Construct: expressed in transfected cells; host or cells: Xenopus laevis oocytes, injected with in vitro transcribed RNA
Sequence (Q9UGM1 26-479 limits assumed): as the sequence (Q9UGM1 26-479 limits assumed) above
Experiment: Two-electrode voltage-clamp, agonist concentration-response, α9 nAChR in Xenopus oocytes
Assay type: cell-based
Conditions: relative to ACh (Imax = 1); peak currents; ± standard error of fit

MOLECULE: CCCNC(=O)c1ccc(N2CC[N+](CC)(CC)CC2)cc1.[I-]
α9 Imax: 1.13
--
MOLECULE: Cc1cccc(NC(=O)c2ccc(N3CC[N+](C)(C)CC3)cc2)n1.[I-]
α9 Imax: 0.51
--
MOLECULE: CC[N+]1(CC)CCN(c2ccc(C(=O)Nc3ccccn3)cc2)CC1.[I-]
α9 Imax: 1.18
--
MOLECULE: CC[N+]1(CC)CCN(c2ccc(-n3cccn3)cc2)CC1.[I-]
α9 Imax: 1.01
--
MOLECULE: CC[N+]1(CC)CCN(c2ccc(C(=O)Nc3cccc(C)c3)cc2)CC1.[I-]
α9 Imax: 1.25
--
MOLECULE: CC[N+]1(CC)CCN(c2ccc(-c3ncco3)cc2)CC1.[I-]
α9 Imax: 1.29
--
MOLECULE: CC[N+]1(CC)CCN(c2ccc(C(N)=O)cc2)CC1 [Compound 1, reference compound]
α9 Imax: 0.80
--
MOLECULE: CC[N+]1(C)CCN(c2ccc(C(=O)Nc3cccc(C)n3)cc2)CC1.[I-]
α9 Imax: 1.19
--
MOLECULE: CC[N+]1(CC)CCN(c2ccc(C(=O)N3CCCC3)cc2)CC1.[I-]
α9 Imax: 0.69
--
MOLECULE: CC[N+]1(CC)CCN(c2ccc(-n3cccc3)cc2)CC1.[I-]
α9 Imax: 0.27

----------
Molecular target: α9 nAChR (Homo sapiens)
Assay: Two-electrode voltage-clamp, agonist concentration-response, α9 nAChR in Xenopus oocytes
Conditions: peak currents; ± standard error of fit
pEC50: −log10 of the molar value.
Reported pEC50 is given for each of the following molecules.
READOUT TYPE: pEC50

MOLECULE: CC[N+]1(CC)CCN(c2ccc(-n3cccn3)cc2)CC1.[I-]
READOUT TYPE: pEC50
REPORTED RESULT: 5.83

MOLECULE: CC[N+]1(CC)CCN(c2ccc(C(N)=O)cc2)CC1 [Compound 1, reference compound]
READOUT TYPE: pEC50
REPORTED RESULT: 5.94

MOLECULE: CC[N+]1(CC)CCN(c2ccc(-n3cccc3)cc2)CC1.[I-]
READOUT TYPE: pEC50
REPORTED RESULT: 5.95

MOLECULE: CC[N+]1(CC)CCN(c2ccc(C(=O)Nc3cccc(C)c3)cc2)CC1.[I-]
READOUT TYPE: pEC50
REPORTED RESULT: 5.89

----------
Reported Effect of co-application on the control ACh responses, α4β2 is given for each of the following compounds.
Molecular target: α4β2 nAChR (Homo sapiens, UniProt P17787+P43681)
Construct: expressed in transfected cells; host or cells: Xenopus laevis oocytes
Sequence (P43681 29-627 limits assumed): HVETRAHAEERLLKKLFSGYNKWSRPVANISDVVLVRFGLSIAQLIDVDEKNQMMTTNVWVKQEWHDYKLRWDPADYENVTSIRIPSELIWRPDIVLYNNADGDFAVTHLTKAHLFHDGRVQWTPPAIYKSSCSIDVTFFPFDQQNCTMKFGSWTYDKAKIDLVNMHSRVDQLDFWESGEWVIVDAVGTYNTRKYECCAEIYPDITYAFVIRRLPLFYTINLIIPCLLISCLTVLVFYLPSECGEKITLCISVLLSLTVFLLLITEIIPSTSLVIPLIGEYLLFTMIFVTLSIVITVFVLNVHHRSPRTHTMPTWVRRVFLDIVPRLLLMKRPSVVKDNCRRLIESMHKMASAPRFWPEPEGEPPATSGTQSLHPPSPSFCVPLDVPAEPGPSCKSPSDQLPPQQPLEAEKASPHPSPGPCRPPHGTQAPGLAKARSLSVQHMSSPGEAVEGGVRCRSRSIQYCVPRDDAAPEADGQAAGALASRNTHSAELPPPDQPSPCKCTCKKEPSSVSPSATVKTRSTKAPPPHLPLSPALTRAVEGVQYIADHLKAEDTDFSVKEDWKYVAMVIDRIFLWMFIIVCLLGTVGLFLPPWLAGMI
Sequence (P17787 26-502): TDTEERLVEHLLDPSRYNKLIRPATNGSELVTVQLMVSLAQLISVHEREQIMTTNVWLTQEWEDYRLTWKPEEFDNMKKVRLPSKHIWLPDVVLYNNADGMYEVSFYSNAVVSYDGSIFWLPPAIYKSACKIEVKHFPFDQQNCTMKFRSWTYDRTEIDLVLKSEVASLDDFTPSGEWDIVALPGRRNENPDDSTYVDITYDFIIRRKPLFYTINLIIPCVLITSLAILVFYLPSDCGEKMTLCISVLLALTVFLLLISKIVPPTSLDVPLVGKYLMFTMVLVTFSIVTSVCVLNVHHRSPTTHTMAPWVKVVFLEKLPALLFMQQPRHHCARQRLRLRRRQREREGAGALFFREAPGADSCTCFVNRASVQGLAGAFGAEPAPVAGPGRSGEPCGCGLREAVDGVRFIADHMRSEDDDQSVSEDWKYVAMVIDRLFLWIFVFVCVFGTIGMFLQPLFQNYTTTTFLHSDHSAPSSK
Assay: Inhibition of control ACh responses by co-application, α4β2 nAChR in oocytes
Type: cell-based
Details: 3 μM compound co-applied with ACh; fraction of control ACh response
READOUT TYPE: Effect of co-application on the control ACh responses, α4β2

ENTRY SMILES: CC[N+]1(CC)CCN(c2ccc(-n3cccn3)cc2)CC1.[I-]
ASSAYED TARGET: α4β2 nAChR (Homo sapiens, UniProt P17787+P43681)
REPORTED RESULT: 0.913
//
ENTRY SMILES: CC[N+]1(CC)CCN(c2ccc(C(=O)N3CCCC3)cc2)CC1.[I-]
ASSAYED TARGET: α4β2 nAChR (Homo sapiens, UniProt P17787+P43681)
REPORTED RESULT: 0.919
//
ENTRY SMILES: Cc1cccc(NC(=O)c2ccc(N3CC[N+](C)(C)CC3)cc2)n1.[I-]
ASSAYED TARGET: α4β2 nAChR (Homo sapiens, UniProt P17787+P43681)
REPORTED RESULT: 0.912
